Measured values drawn from patent US20210253575A1 for this set.

Target: human TLR7 (Homo sapiens, UniProt Q9NYK1)
Sequence (Q9NYK1 27-1049): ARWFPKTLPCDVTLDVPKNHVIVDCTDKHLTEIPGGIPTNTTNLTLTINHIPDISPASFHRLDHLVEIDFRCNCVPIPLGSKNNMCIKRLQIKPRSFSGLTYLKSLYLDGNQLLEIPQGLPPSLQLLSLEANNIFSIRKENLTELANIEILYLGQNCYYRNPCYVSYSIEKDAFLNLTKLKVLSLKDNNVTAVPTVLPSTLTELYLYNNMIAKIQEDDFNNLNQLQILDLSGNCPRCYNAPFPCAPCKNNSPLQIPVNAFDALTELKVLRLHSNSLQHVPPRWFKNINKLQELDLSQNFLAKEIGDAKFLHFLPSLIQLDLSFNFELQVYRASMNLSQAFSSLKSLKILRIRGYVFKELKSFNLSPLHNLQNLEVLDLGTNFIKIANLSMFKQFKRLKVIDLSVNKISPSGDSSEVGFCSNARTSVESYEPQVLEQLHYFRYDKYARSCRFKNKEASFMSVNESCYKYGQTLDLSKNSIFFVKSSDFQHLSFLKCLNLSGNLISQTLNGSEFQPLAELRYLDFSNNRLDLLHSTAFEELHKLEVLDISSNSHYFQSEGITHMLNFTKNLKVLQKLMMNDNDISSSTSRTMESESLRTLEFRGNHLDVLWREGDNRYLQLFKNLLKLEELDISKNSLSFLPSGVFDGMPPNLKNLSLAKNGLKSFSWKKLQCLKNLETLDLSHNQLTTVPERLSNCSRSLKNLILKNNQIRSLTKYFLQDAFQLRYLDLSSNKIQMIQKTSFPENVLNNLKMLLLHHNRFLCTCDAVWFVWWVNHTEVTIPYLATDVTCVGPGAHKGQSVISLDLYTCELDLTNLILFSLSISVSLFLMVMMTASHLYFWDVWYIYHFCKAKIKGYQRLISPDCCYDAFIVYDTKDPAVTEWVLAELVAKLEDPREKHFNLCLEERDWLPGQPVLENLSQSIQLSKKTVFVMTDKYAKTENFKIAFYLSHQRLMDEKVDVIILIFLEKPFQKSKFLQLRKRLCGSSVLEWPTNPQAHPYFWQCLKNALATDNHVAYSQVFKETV
Test: HEK293-Blue-hTLR-7 cells assay (SEAP reporter, R848 stimulation)
Settings: HEK293-Blue-hTLR7 cells, R848 ligand, 20 hrs incubation

{"columns": ["Compound", "IC50 / nM"],
 "data": [
  ["CC(C)[C@@H]1CN(c2ccc(C#N)c3ncccc23)C[C@H]1CN1CCC2(CCNC2)C1 (relative stereo)", 963],
  ["C[C@H]1CN(c2ccc(C#N)c3nccnc23)C[C@@H]1CN1CCC2(CCNCC2)CC1", 128],
  ["N#Cc1ccc(N2C[C@@H](CN3CCC4(CCNC4)C3)[C@H](C(F)F)C2)c2cccnc12 (relative stereo)", 454],
  ["C[C@H]1CN(c2ccc(C#N)c3ncccc23)C[C@@H]1CN1CCC2(CCNC2)C1 (stereo partly shown)", 468],
  ["N#Cc1ccc(N2CC(CN3CCNCC3)C3(CC3)C2)c2nccnc12 (stereo not shown)", 27],
  ["N#Cc1ccc(N2CC(CN3CCC(N)CC3)C3(CC3)C2)c2nccnc12 (stereo not shown) [Example 68]", 75],
  ["N#Cc1ccc(N2C[C@H](CN3CCC4(CCNCC4)CC3)[C@@H](C(F)(F)F)C2)c2nccnc12", 5],
  ["N#Cc1ccc(N2CC(CNC3CCCNCC3)C3(CC3)C2)c2nccnc12 (stereo not shown)", 709],
  ["N#Cc1ccc(N2C[C@H](CN3CCCC(C(N)=O)C3)[C@@H](C(F)(F)F)C2)c2nccnc12 (stereo partly shown)", 135],
  ["N#Cc1ccc(N2C[C@H](CN3CCC4(CCNC4)CC3)[C@@H](C(F)(F)F)C2)c2cccnc12", 91],
  ["N#Cc1ccc(N2C[C@H](CN3CCC4(CCNCC4)CC3)[C@@H](C(F)(F)F)C2)c2cccnc12", 20],
  ["N#Cc1ccc(N2C[C@H](CN3CC4(CCCNC4)C3)[C@@H](C(F)(F)F)C2)c2cccnc12", 57],
  ["N#Cc1ccc(N2C[C@H](CN3CCC(N4CCCC4)CC3)[C@@H](C(F)(F)F)C2)c2nccnc12", 29],
  ["N#Cc1ccc(N2C[C@H](CN3CCC4(CCCNC4)C3)[C@@H](C(F)(F)F)C2)c2cccnc12 (stereo partly shown)", 48],
  ["FC(F)(F)c1ccc(N2CC(CN3CCC4(CCNCC4)CC3)C3(CC3)C2)c2nccnc12 (stereo not shown)", 385],
  ["C[C@H]1CN(C[C@H]2CN(c3ccc(C#N)c4nccnc34)C[C@@H]2C(F)(F)F)CC[C@H]1N", 13],
  ["N#Cc1ccc(N2CC(CN3C[C@H]4CNC[C@H]4C3)C3(CC3)C2)c2nccnc12 (stereo partly shown)", 137],
  ["N#Cc1ccc(N2CC(CN3CCC(N)CC3)C3(CC3)C2)c2nccnc12 (single isomer, unassigned) [Example 68A]", 61],
  ["CNCC1CCN(C[C@H]2CN(c3ccc(C#N)c4nccnc34)C[C@@H]2C(F)(F)F)CC1", 32],
  ["N#Cc1ccc(N2C[C@H](CN3CCCC(F)(CN)C3)[C@@H](C(F)(F)F)C2)c2nccnc12 (stereo partly shown)", 32],
  ["N#Cc1ccc(N2CC(CN3CCC4(CCNCC4)C3)C3(CC3)C2)c2nccnc12 (stereo not shown)", 402],
  ["N#Cc1ccc(N2C[C@@H](CN3CCC4(CCNCC4)CC3)[C@H](C(F)F)C2)c2cccnc12 (relative stereo)", 354],
  ["N#Cc1ccc(N2CC(CN3CCC4(CCNCC4)CC3)C3(CC3)C2)c2nccnc12 (stereo not shown)", 113],
  ["N#Cc1ccc(N2CC(CN3CCC4(CC3)CNCCO4)C3(CC3)C2)c2nccnc12 (stereo not shown)", 153],
  ["N#Cc1ccc(N2C[C@H](CN3CCC4(CCNC4)C3)[C@@H](C(F)(F)F)C2)c2cccnc12 (stereo partly shown)", 61],
  ["FC(F)(F)c1ccc(N2CC(CN3C[C@H]4CNC[C@H]4C3)C3(CC3)C2)c2nccnc12 (stereo partly shown)", 821],
  ["N#Cc1ccc(N2C[C@H](CN3CCC(N4CCCCC4)CC3)[C@@H](C(F)(F)F)C2)c2cccnc12", 69],
  ["N#Cc1ccc(N2CC(CN3CC4CCNCC43)C3(CC3)C2)c2nccnc12 (stereo not shown)", 232],
  ["N#Cc1ccc(N2C[C@H](CN3CCC4(CCNC4)CC3)[C@@H](C(F)(F)F)C2)c2nccnc12", 43],
  ["N#Cc1ccc(N2CC(CN3CC4CCC(C3)C4N)C3(CC3)C2)c2nccnc12 (stereo not shown)", 28],
  ["N#Cc1ccc(N2C[C@H](CN3CC4CCC(C3)C4N)[C@@H](C(F)(F)F)C2)c2nccnc12 (stereo partly shown)", 20]
]}
